System: SNB-19 CNS
Experiment: NCI-60 one-dose screen, 48 h (100 = growth as untreated, 0 = no growth, -100 = all killed)
Conditions: 10 µM unless noted
Experimental: Growth inhibition of the SNB-19 human tumor cell line is measured as a screen for anti-cancer activity. Cells are grown in 96 well plates and exposed to the test compound for 48 hours. Compounds are tested at a single concentration, which is 10^-5 M for most compounds. The reported endpoint is percent growth (GI% or GIPRCNT), where numbers from 0 - 100% represent growth inhibition, and numbers from -100% - 0 represent cell death. For example, a value of 40 represents 60% growth inhibition. […]
About 83,000 compounds went through this panel and 20% of them were active in at least one assay; those are over-represented in the sample as a whole.
For each entry below, report its growth value.
// note: answer is a bare numeric in %

Give the measured growth of C1=C(Cc2ccccc2)n2cnc3ncnc(c32)S1 .
94.1

Give the measured growth of c1cc[n+](Cc2ccnc3ccccc23)cc1 .
103

Give the measured growth of NS(=O)(=O)c1ccc(-n2ncc3c(N/N=C/c4ccccc4)ncnc32)cc1 .
80.4

Give the measured growth of CN(C)c1ccc(-c2nc3ncc(Br)cc3o2)cc1 .
91

Give the measured growth of O=C(N/N=C/c1ccc(Cl)cc1Cl)c1ccccc1Nc1cccc(C(F)(F)F)c1 .
76.1

Give the measured growth of O=C(c1ccc(Cl)cc1)c1ccc(Cl)cc1 .
109

---

tested on: CCRF-CEM leukemia; assay: NCI-60 one-dose screen, 48 h; details: 10 µM unless noted
This is part of a sample that, as a whole, favours compounds with a hit. Of some 83,000 tested, about 20% had one in any assay. Active and inactive are the calls of the source. The calls were made as follows: active = growth percent below 10; inactive = the rest.
Bench note: report the call from 1.0 for active, 0.0 for inactive

# lookup: test call for O=C(Nc1ccc2c(c1)C(=O)c1ccccc1-2)c1ccccc1
0.0

# lookup: test call for CCOC(=O)C1C(=O)NC(C(=O)OCC)(C(=O)OCC)C1CC (stereo not given)
0.0

# lookup: test call for O=C(c1ccccc1)C(CN1CCCCC1)c1ccccc1 (stereo not given)
1.0

# lookup: test call for O=C(O)c1ccc(CNS(=O)(=O)c2ccc3ccccc3c2)cc1
0.0

# lookup: test call for Clc1ccc2[nH]cc(-c3cncn3CCc3ccccc3)c2c1
0.0

# lookup: test call for COc1ccc2c(c1)C(=Nc1cc(OC)c(OC)c(OC)c1)C(=O)N2
0.0

# lookup: test call for COc1cc(NC(=O)NCc2ccco2)ccc1-c1ccc(NC(=O)NCc2ccco2)cc1OC
0.0

# lookup: test call for Cc1cc(C)nc(NS(=O)(=O)c2ccc(Nc3nc4nc(SCc5ccccc5)nc(-c5ccc(O)cc5)c4c(=O)[nH]3)cc2)n1
0.0

# lookup: test call for Cc1ccc(-c2csc(N)n2)cc1
0.0

# lookup: test call for O=C1/C=C/[C@@H](O)[C@@H]2C[C@@H](O)C[C@H]2/C=C/CCC[C@H](CO)O1
0.0

# lookup: test call for COc1cc(/C=N/NC(=O)c2ccc(C(F)(F)F)nc2Nc2ccc(Cl)cc2C)ccc1O
0.0

# lookup: test call for N#Cc1ccc(-c2csc(Nc3ccc4nc5n(c(=O)c4c3)CCC5)n2)cc1
0.0

# lookup: test call for O=C(CNC(=O)c1cccc2ccccc12)Nc1ccccc1Cc1ccccc1
0.0

# lookup: test call for N#Cc1ccccc1C#Cc1ccccc1C#Cc1ccc(OCCCCCCOc2ccc(C#Cc3ccccc3C#Cc3ccccc3C#N)cc2)cc1
1.0

# lookup: test call for COc1ccc(CC(=O)Nc2nn3c(-c4cc(C(F)(F)F)cc(C(F)(F)F)c4)nnc3s2)cc1
0.0

# lookup: test call for O=C(Nc1ccc(Cl)cc1)Nc1ccccc1CNc1nc(Nc2ccc(OCCN3CCCC3)cc2)ncc1Cl
1.0

# lookup: test call for O=C(CN1CCN(c2ccc(Cl)cc2)CC1)N1CCN(c2nnc(-c3ccc(Cl)cc3)c(-c3ccc(Cl)cc3)n2)CC1
0.0

# lookup: test call for COc1ccc(C(=O)/C=C/c2ccc(C)cc2)cc1OC
0.0

# lookup: test call for Cc1nn(-c2ccccc2)cc1/C=C1\SC(N2CCCCC2)=NC1=O
0.0

# lookup: test call for Cc1ccc(N/N=C(/C(=O)c2ccc(Cl)cc2)c2nc(C)cc(=O)[nH]2)cc1
1.0

Sourced from PubChem BioAssay (NCI)
